# measured-on: Nuclear receptor subfamily 1 group I member 2 (Homo sapiens)
# method-notes: CYP3A4 induction through human pregnane X receptor (PXR) by small molecules, qHTS assay (AID 1346984); further: nearly all actives have a fitted effect of over 40% in size
# test-settings: DPX-2 HepG2 PXR, CYP3A4-luciferin luminescence, 24 h; series mostly up to 46.1 µM
Results filed as inconclusive are left out. Activity calls are given as the source filed them. The call rests on the fitted dose curve; in most records, active means well fitted activation curve with a large enough effect in the repeat runs; inconclusive means weak or mixed curves; inactive means no such curve, though single readings can be large or run the other way.
Respond only with the outcome that fits, drawn from 1.0 (active), 0.0 (inactive)

Request: Which outcome was assigned to CN1C(=O)CN2CCc3ccccc3C2c2cc(Cl)ccc21 (stereo unspecified) in this test?
Result: 1.0

Request: What did this assay record as the result for "O=C1CSC2(CCN(CCCN3c4ccccc4Sc4ccc(Cl)cc43)CC2)N1" ?
Result: 0.0

Request: Entry "CCCCC[C@H](O)/C=C/[C@@H]1[C@H]2C/C(=C/CCCC(=O)O)O[C@H]2C[C@H]1O" : call = ?
Result: 0.0

Request: Each compound tested received a call. Report the one for "CCOc1ccc(N=Nc2ccc(N)cc2N)cc1" .
Result: 0.0

Request: Identify the outcome logged in this assay for the compound shown: "CC(=O)O[C@]1(C(C)=O)CC[C@H]2[C@@H]3CCC4=CC(=O)CC[C@]4(C)[C@@]3(F)[C@@H](O)C[C@@]21C"
Result: 0.0

Request: What outcome does the record of this test show for C[C@@H](O)[C@H]1C(=O)N2C(C(=O)[O-])=C(SC3Cn4cnc[n+]4C3)[C@H](C)[C@H]12 (stereo partly specified) ?
Result: 0.0

Request: Please state the recorded outcome for this compound: "COc1ccc2cc([C@H](C)CO)ccc2c1"
Result: 0.0

Request: Recorded test outcome, item "CC(C)(C)CC(C)(C)c1cc(Cc2cc(C(C)(C)CC(C)(C)C)cc(-n3nc4ccccc4n3)c2O)c(O)c(-n2nc3ccccc3n2)c1"
Result: 0.0

Request: # lookup: test call for "O=C(O)c1cc(O)c2c(c1)[O][Bi][O]2"
Result: 0.0

Request: Look up the recorded call for OCC(S)CS (stereo unspecified) in this test.
Result: 0.0

Request: Tell me the recorded outcome of this test for "Cc1nc(NS(=O)(=O)c2ccc(N)cc2)nc(C)c1Br" .
Result: 0.0

Request: What call does the record list for "C[C@H](N)C(=O)N[C@@H](C)P(=O)(O)O" ?
Result: 0.0

Request: Field: outcome | Entry: "CCOC(=O)c1cc(-c2ccccc2)nc2ccc(C)cc12"
Result: 0.0

Request: Status in this test for "CC(=O)[C@]1(O)Cc2c(O)c3c(c(O)c2[C@@H](O[C@H]2C[C@H](N)[C@H](O)[C@H](C)O2)C1)C(=O)c1c(O)cccc1C3=O" ?
Result: 0.0

Request: Which outcome was assigned to "OC[C@@H](O)C(O)[C@H](O)CO" in this test?
Result: 0.0

Request: What classification did "O=C(OCc1ccccc1)c1cccnc1" end up with in this test?
Result: 0.0

Request: Called result for CC(=O)Nc1c(I)c(C(=O)N[C@H]2C(O)O[C@H](CO)[C@@H](O)[C@@H]2O)c(I)c(N(C)C(C)=O)c1I (stereo partly specified)
Result: 0.0

Request: Assay result, entry "COc1ccc(-c2noc(CC(=O)O)c2-c2ccc(OC)cc2)cc1" — outcome?
Result: 0.0

Request: Fill in: this test's call for "Oc1cc(O)cc(O)c1" is ___
Result: 0.0

Request: Outcome logged for "O=C1NC(=O)[C@H]2[C@@H]1[C@@H]1C=C[C@H]2C1" in this assay:
Result: 0.0

Request: Per the assay record, what outcome was assigned to CCN1C(=O)NC(c2ccccc2)C1=O (stereo unspecified) ?
Result: 0.0

Request: // return assay outcome for "C#CCOc1ccc2c(C)cc(=O)oc2c1"
Result: 0.0

Request: For this compound, state the assay outcome: "O=C(O)CCC/C=C\C[C@@H]1[C@@H](/C=C/[C@@H](O)COc2cccc(Cl)c2)[C@H](O)C[C@@H]1O"
Result: 0.0

Request: Outcome logged for CCC(C)[C@@H](N)C(=O)O (stereo partly specified) in this assay:
Result: 0.0

Request: Which outcome was assigned to "Nc1nc2[nH]cc(CCc3ccc(C(=O)N[C@@H](CCC(=O)O)C(=O)O)cc3)c2c(=O)[nH]1" in this test?
Result: 0.0

Request: Per the assay record, what outcome was assigned to CC(Oc1ccccc1)C(=O)N[C@@H]1C(=O)N2[C@@H]1SC(C)(C)[C@@H]2C(=O)O (stereo partly specified) ?
Result: 0.0

Request: For "Cc1ncc(COP(=O)(O)O)c(CN)c1O" , what call appears in the results of this test?
Result: 0.0

Request: Outcome? "CCOc1cc(-c2nccc3cc(OC)c(OC)cc23)cc(OCC)c1OCC"
Result: 0.0

Request: I would be grateful if you could indicate the recorded call for "CC1=C[C@H](O)CC(C)(C)[C@H]1/C=C/C(C)=C/C=C/C(C)=C/C=C/C=C(C)/C=C/C=C(C)/C=C/C1=C(C)C[C@@H](O)CC1(C)C" .
Result: 0.0

Request: Dear colleague, could you share the recorded outcome for CC(=O)N[C@@H]1C(O[C@H]2O[C@H](C(=O)O)C(O)[C@H](O)[C@H]2O)[C@H](O)[C@@H](CO)O[C@H]1O[C@@H]1C(C(=O)O)O[C@@H](O[C@H]2[C@H](O)[C@@H](CO)OC(O)[C@@H]2NC(C)=O)[C@H](O)[C@H]1O (stereo partly specified) when you have a moment?
Result: 0.0

Request: Please share the test call associated with "O=C(O)[C@H]1/C(=C/CO)O[C@@H]2CC(=O)N21" .
Result: 0.0

* * *

# method-notes: qHTS assay for small molecule agonists of the p53 signaling pathway (AID 651631); further: nearly all actives have a fitted effect of over 15% in size
# test-settings: HCT-116 p53RE-bla reporter, beta-lactamase FRET ratio, 16 h; series mostly up to 73.3 µM
Inconclusive results are not listed. Activity calls are given as the source filed them. Calls follow the shape of the full dose curve.
Thanks in advance; please answer with one of these: Y for active, N for inactive

Request: Recorded test call requested for COc1cc(S(C)=O)ccc1-c1nc2ncccc2[nH]1 (centres undefined)
Result: N

Request: Dear colleague, could you share the recorded outcome for "CC(C)(C)NC[C@H](O)COc1ccccc1C1CCCC1" when you have a moment?
Result: N

Request: Please indicate how the test categorized "CCOC(=O)[C@H](CCc1ccccc1)N[C@@H](C)C(=O)N1CC2(C[C@H]1C(=O)O)SCCS2" .
Result: N

Request: I'd appreciate the recorded outcome for "C=CCSSSCC=C" from this test.
Result: Y

Request: Any idea what this test logged for "CC1(C)S[C@@H]2[C@H](NC(=O)Cc3ccccc3)C(=O)N2[C@H]1C(=O)O" ?
Result: N

Request: Dear all, I need the recorded test outcome for "N=C(N)c1ccc(OCCCOc2ccc(C(=N)N)cc2Br)c(Br)c1" , thank you.
Result: N

Request: For this compound, state the assay outcome: CC1(C)C2CC[C@]3(C)[C@H](C(=O)C=C4[C@@H]5C[C@@](C)(C(=O)O)CC[C@]5(C)CC[C@]43C)[C@@]2(C)CC[C@@H]1O[C@H]1O[C@H](C(=O)O)[C@@H](O)[C@H](O)[C@H]1O[C@@H]1O[C@H](C(=O)O)[C@@H](O)[C@H](O)[C@H]1O (some centres undefined)
Result: N

Request: // return assay outcome for "CN(CC(=O)N1CCOCC1)Cc1c(Cl)cccc1NC(=O)c1ccccc1"
Result: N

Request: Dear all, I need the recorded test outcome for "CCOC(=O)O[C@]1(C(=O)COC(=O)CC)CC[C@H]2[C@@H]3CCC4=CC(=O)C=C[C@]4(C)[C@H]3[C@@H](O)C[C@@]21C" , thank you.
Result: N

Request: Which outcome did this test record for the compound "C#C[C@]1(OC(C)=O)CC[C@H]2[C@@H]3CCC4=CC(=O)CC[C@@H]4[C@H]3CC[C@@]21C" ?
Result: N

Request: Name the outcome recorded for "CC(C)Cc1ccc([C@@H](C)C(=O)NS(C)(=O)=O)cc1" in the assay.
Result: N

Request: Fill in: this test's call for "COc1cc2[nH]c(C)c(CCN3CCN(c4ccccc4)CC3)c2cc1OC" is ___
Result: N

Request: // outcome(item) with item = "CO[C@H]1C[C@H](O[C@H]2[C@H](C)[C@@H](O[C@@H]3O[C@H](C)C[C@H](N(C)C)[C@H]3OC(C)=O)[C@@H](C)C[C@]3(CO3)C(=O)[C@H](C)[C@@H](OC(C)=O)[C@@H](C)[C@@H](C)OC(=O)[C@@H]2C)O[C@@H](C)[C@@H]1OC(C)=O"
Result: N

Request: Outcome? "COC1=C(C(=O)O)N2C(=O)[C@@H](NC(=O)[C@H](N)C3=CCC=CC3)[C@H]2SC1"
Result: N

Request: Identify the outcome logged in this assay for the compound shown: CC#CCC(C)[C@H](O)/C=C/[C@@H]1[C@H]2C/C(=C/CCCC(=O)O)C[C@H]2C[C@H]1O (some centres undefined)
Result: N

Request: Entry "O=S(=O)(O)Oc1ccc(C(c2ccc(OS(=O)(=O)O)cc2)c2ccccn2)cc1" : call = ?
Result: N

Request: // return assay outcome for "CCOC(=O)COc1ccc2c(C)c(CCN(CC)CC)c(=O)oc2c1"
Result: N

Request: Recorded call for C#CCC(Cc1cnc2nc(N)nc(N)c2n1)c1ccc(C(=O)N[C@@H](CCC(=O)O)C(=O)O)cc1 (some centres undefined) ?
Result: Y

Request: Can you look up the reported call for "COc1ccc(CCNC[C@H](O)c2ccc(O)cc2)cc1OC" for me?
Result: N

Request: For CC(=O)Oc1c(C)cc(OCC(O)CNC(C)C)c(C)c1C (centres undefined) , what call appears in the results of this test?
Result: N

Request: Tell me the recorded outcome of this test for CC(C)[C@H](N)C(=O)OCC(CO)OCn1cnc2c(=O)[nH]c(N)nc21 (some centres undefined) .
Result: N

Request: Fill in: this test's call for "NC(=S)N=Nc1ccc(NN=C(N)N)cc1" is ___
Result: N

Request: Tell me the assay call for "O=C(O)c1cc2ccccc2c(Cc2c(O)c(C(=O)O)cc3ccccc23)c1O" please.
Result: N

Request: Tell me the recorded outcome of this test for "C/C=C(/CC[C@@H](C)[C@H]1CC[C@H]2C3=CC[C@H]4[C@H](C)[C@@H](O)CC[C@]4(C)[C@H]3CC[C@]12C)C(C)C" .
Result: N

Request: Record request — test call for "CO/N=C(\C(=O)N[C@@H]1C(=O)N2C(C(=O)OCOC(=O)C(C)(C)C)=C(/C=C\c3scnc3C)CS[C@H]12)c1csc(N)n1"
Result: N

Request: Hi, do you know how "Cc1nc(NS(=O)(=O)c2ccc(N)cc2)nc(C)c1Br" came out in this test?
Result: N

Request: Can you look up the reported call for "O=C1C(=O)c2ncccc2-c2cccnc21" for me?
Result: Y

Request: Please let me know the test result on file for OC(CN1CCCCC1)c1cc(-c2ccccc2)on1 (centres undefined) .
Result: N

Request: Any idea what this test logged for "CC(C)[C@@H]1CC[C@@H](C)C[C@H]1OC(=O)c1ccccc1O" ?
Result: N
